Assay: yeast display, Sf9 membrane polyspecificity reagent, FACS + sequencing; frameworks hold sequencing errors
test.readout: polyreactivity (PSR sort gate)

sequence.string	test.readout	assay.value
QVQRVESGGGLVQAGGILSLSCAASGSIFPWYAMGWYIQAPANERELVAAITISGGSTHYADSVKGRFTISRDNAKNSVYLEMNSLIPEDTAVYYCSTPRYPSYEYWGLGTQVTVSS	polyreactivity (PSR sort gate)	low polyreactivity
QVQLVESGGGLVQAGGSLRLSCAASGIIFSQYAMGWYRQAPGKERELVATITSRGASTYYADSVKGRFTISRDNAKNTVYLQMNSLKPEDTAVYYCAATVRRRYERYNYWGQGTQVTVSS	polyreactivity (PSR sort gate)	high polyreactivity
QVQLVESGGGLVQAGGSLRLSCAASGYTIIQYAMGWYRQAPGKERELVAGMTWSGGSKYADSVKGRFTISRDNAKNTVYLQMNSLNPEDTAVYYCAAVPYSYTYVYLRHYDYWGQGTQVSVSS	polyreactivity (PSR sort gate)	low polyreactivity
QVQLVETGGGLVQAGGSLRLSCAATGFTFGYYTMGWYRQAPGKEGELVAAITWRGGSTYYADSVKGRFTISRDNAKNTVYLQMNSLKPEDTAVYYCNAVVLGYYPSGVYPDDEEHDYWGQGTQVTVSS	polyreactivity (PSR sort gate)	high polyreactivity
QVQLVESGGGLVQAGGSLRLSCPASGSIIIRNAMGWYRQAPGKERELVAAISIGDGSTYADSVKGRFTISRDNAKNTVYLQMNSLKPEDTAVYYCAADRYGFYLESYYWGQGTQVTVSS	polyreactivity (PSR sort gate)	low polyreactivity
QVQLVESGGGLVQAGGSLRLSCAASGSNFAKNAMGWYRQAPGKEREMVAAITYSGGSTYYADSVKGRFTISRDNAKNTVYVQMNSLKPEDTAVYYCAADVWWSYYRYDYWGQGTQVTVSS	polyreactivity (PSR sort gate)	low polyreactivity
QVQLVESGGGLVQAGGSLRLSCAASGSTFTWNTMGWYRQAPGKEREMVAAISMRGANTYADSVKGRFTISLDNAKNTVYLEMNSLKPEDTAVYYCARDRLAIMDYNEYITRYEYWGQGTQVTVSS	polyreactivity (PSR sort gate)	low polyreactivity
QVQLVESGGGLVQAGGSLRLSCAASGSIFEWYAMGWYRQEPGKERELVADITYNGGSTYYADSVKGRFTISRDNAKNTVYLQMNSLKPEDSAVYYCNKDIERYVSIYDSWGQGTQVTVSS	polyreactivity (PSR sort gate)	low polyreactivity
QVQLVESGGGLVQAGGSLRLSCAASGFTFEKYVMGWYRQAPGKEREFVAAITRSGGRTYYADSVKGRFTISRDNAKNTVYLQMNSLKPEDSAVYYCAAAFSRSDTGGGSWGQGTEVTVSS	polyreactivity (PSR sort gate)	high polyreactivity
QVQLVESGGGLVQAGGSLSLSCAASGSTFDYYAMGWYRQAPGKERELVADITYSGGSTYYADSVKGRFTISRDNAKNTVYLQMNSLKPEDTAVYYCNAYYTVYTRYDYWGQGTQVTVSS	polyreactivity (PSR sort gate)	high polyreactivity
QVQLVESGGGLVQAGGSLRLSSAASGLTFAYYTMGWYRQAPGKERELVAAISRSGSGTYYADSVKGRFTISRDNAKNTVYLQMNSLKPEDTAVYYCATRYYLKFLDGYNYWGQGTQVTVSS	polyreactivity (PSR sort gate)	high polyreactivity

###

Test: yeast display, Sf9 membrane polyspecificity reagent, FACS + sequencing; frameworks hold sequencing errors

sequence.string	polyreactivity (PSR sort gate)
QVQLVESGGGLVQAGGSLRLSCAASGSTFSSYAMGWYRQAPGKERELVAAITSGGSTNYADSVKGRFTISRDNAKNTVYLQMNSLKPEDTAVYYCNAQINDFIFVYDYWGQGTQVTVSS	low polyreactivity
QVQLVESAGGLVQAGGSLRLSCAASGIIFTSNTMGWYRQAPGKEREFVASINWNGSSTYADSVKGRFTISRDNAKNTVYLQMNSLKPEDTAVYYCAADWLGYQYGYWGQGTQVTVSS	low polyreactivity
QVQLVESGGGLVQAGGSLRLSCAASGNIFRKNAMGWYRQAPGKERELVAAISRRGGNTYYADSVKGRFTISRDNAKNTVYLQMNSLKPEDTAVYYCAADWSPTAASDYWGQGTQVTVSS	high polyreactivity
QVQLVESGGGLVQAGGSLRLSCAASGSIFANYAMGWYRQAPGKERELVAAITFSSGDSTYYADSVKGRFTISRDNAKNTVYLQMNSLKPEDTAVDYCATVTYGWSGYDYWGQGTQVTVSS	low polyreactivity
QVQLVESGGGLVQAGGSLRLSCPASGIIFSTYAMGWYRQAPGKERELVATITSSGSNTYYADSVKGRFTISRDNAKNTVYLQMNSLKPEDTAVYYCATYSFFWWQYDYWGQGSQVTVSS	high polyreactivity

###

Assay: yeast display, Sf9 membrane polyspecificity reagent, FACS + sequencing; frameworks hold sequencing errors

sequence.string	polyreactivity (PSR sort gate)
QVQLVESGGGLVQAGGSLRLSCAASGFIFNYNAMGWYRQAPGKERELVAAISGTGVRTYYADSVKGRFTISRDNAKNTVYLQMNSLKPEDTAVYYCNAYYGYIPVSGYRNDYWGQGTQVTVSS	low polyreactivity
QVQLVESGGGLVQAGGSLRLSCAASGITFPYYAMGWYRQAPGKERELVAAISSSGGSTYYADSVKGRFTISRDNAKNTVYLQMNSLKPEDTAVYYCAAQRYINYDYWGQGTQVTVSS	high polyreactivity
QVQLVESGGGLVQAGGSLRLSCAASGFTFGNNGMGWYRQAPGKERELVATISWSGGSTYADSVKGRFTISRDNAKNTVYLQMNSLKPEDTAVYYCAAPYLSLYWYDYWGQGTQVTVSS	low polyreactivity
QVQHVESCGGLVQAGGSLRLSCAASGSIFTYYAMGWYRQAPGKEREFVAAISRRGGSTYYADSVKGRFTISRDNAKNTVYLQMNSLKPEDTAVYYCNARYTGSSLYYWGQGTQVTVSS	high polyreactivity
QVQLVESGGGLVQAGGSLRLSCAASGLIFYYYTMGWYRQAPGKERELVAAITNGGRTNYADSVKGRFTISRDNAKNTVYLQMNSLKPEDTAVYYCNAVVHKYQRGPYYIKYDYWGQGTQVTVSS	high polyreactivity
QVQLVESGGGLVQAGGSLRLSCAASGRTFYYNGMGWYRQAPGKERELVAAITSGGTTSYADSVKGRFTISRDNAKNTVYLQRNSLKPEDTAVYYCNADYWAVNYDYWGQATQVTVSS	low polyreactivity
QVQLVESGGGLVQAGGSLRLSSAASGSTFWYYAMGWYRQAPGKERELVAGITQSGGSTYYADSVKGRFTISRDNAKNTVYLQMNSLKPEDTAVYYCAKDGRVSGDFDYWGQGTQVTVSS	low polyreactivity
QVQLVESGGGLVQAGGSLRLTCAASGSTFYLNAMGWYRQATGKERELVAAITVSGGSTYYADSVKGRFTISRDNAKNTVYLQMNSLKPVDTAVYYCARELLSPTYQRWYYYWGQGTQVTVSS	low polyreactivity
QVQLVESGGGLVQAGGSLRLSCAASGSIFDYKAMGWYRQAPGKERELVAAIDSSDTGTYYADSVKGRFTISRDNAKNTVYLQMNSLKPEDTAVYYCAAEYGWWEGSTTYLRYDYWGQGTQVTVSS	low polyreactivity
QVQHVESGGGIVQAGGSLRLSCAASGSTFWRNAMGWYRQAPGKEREFVASISWSGGGTYYADSVKGRFTISRDNEKNTVYLQMNSLKPEDTAVYYCAATPDWSYWYGNGDYDYWGQVTQVTVSS	low polyreactivity
QVQLVESGGGLVQAGGSLRLSCAASGLIFYSYAMGWYRQAHAKERELVAAITGGGSTNYADSVKGRFTISRDNAKNTVYLQMNSLKPEDTAVYYCAAQAYVEGVYRYDYWGQGTQVTVSS	low polyreactivity

###

Assay: yeast display, Sf9 membrane polyspecificity reagent, FACS + sequencing; frameworks hold sequencing errors

sequence.string	polyreactivity (PSR sort gate)
QVQLVESGGCLVQAGGSLRLSCAASGSTFKRYAMGWYRQAPGKVGELVAAISKSGGSTYYADSVKGRFTISRDNAKNTDYLQMNCLNAEDTAVYYCAAGRSIGALYYGMDYWGEGTQVTVSS	high polyreactivity
QVQLVESGGGLVQAGGILRLSCASSGSIFGYYAMGWYRQAPGKERELVAAIDSGGGSTYYADSVKERFTISRDNAKNTVYFQMNSLKPEDTAVYYCAAVSYSYPSLLYEYWGQGTQVTVSS	low polyreactivity
QVQLVESVGGLVQAGGSLRLSCAASGRTFFYNAMGWYRQAPGKERELVAAIDWSGDSTYYADSVKGRFTISRDNAKNTVYLQMNSLKPEDTAVYYCAARRKNRRDYDYYYWGQGTQVTVSS	high polyreactivity
QVQLVESGGGLVQAGGSLRLSCAASGFIRGYYDMGWYRQAPGKERELVAAISSGGRTYYADSVKGRFTISRDNAKNTVYLQMNSLKPEDTAVYYFNAYAPRRRFDYWGQGTQVTVSS	high polyreactivity
QVQLVESGGGLVQAGGSLRLSCAASGRIFRGYGMGWYRQAPGKERELVAAITSRGGSTYYADSVKGRFTISRDNAKYTVYLQMNSLKPEDTAVYYCNRDFNHRPLQSPKRPPKLGYWGQGTQVTVSS	high polyreactivity
QVQLVESGGGLVQAGGSLRLSCAASGRTFEVYAMGRYRQPPGKERELVATITYSGGITYYADSVKGRFTISRDNAKNTVYLQMNSLKPEYTAVYYPICVGGDYDYWGQGTQVTVSS	low polyreactivity
QVQHVESGGGLVQAGGSLRLICAASGSTFRGYAMGWYRPAPGKERELVAAITSSGGSTYYADSVKGRFTISRDNAKNTVYLQMNSLKPEDTAVYSCAAASRRFGLYGYWGQGTQVTVSS	high polyreactivity
QVQLVESGGGLVQAGGSLRLICAASGRIFFIYAMGWYRQAPGKERELVAGINRTGGSTYYADSVKGRFTISRDNAKNSVYLHMNSLKPEDTAVYYCAAVSYYASDYRYDYWGKGTQVTVSS	low polyreactivity
QVQLVESGGGLVQAGGSLRLSCAASGSIFGWYVMGWYRQAPGKERELVAAISSVGSTYYADSVKGRFTISRDNAKNTVYLQMNSLKPEDTAVYYCAADRVWGTPQAYVPSQFDYWGQGTQVTVSS	low polyreactivity
QVQLVESGGGLVQAGGSLRLSCAASGRTFVVNVMGWYRQAPGKERELVAAISSVVSTNYADSVKGRFTISRDNAKNTVYLQMNCLKPEDTAVYYCAADVRGAYSTYLYTTTIRYDYWGQGTQVTVSS	low polyreactivity
QVRLVESGGGLVQAGGSLRLSCAASGSTFKTYAMGWYRQAPGIERELVAAISAGGGSTYYADSVKGRFTISRDNAKNTVYLQMNSLKPEDTAVYYCAAAYIYAGWDYEYGGQGTQVTVSS	low polyreactivity

Source of measurements: the nanobody polyreactivity screen of Harvey et al. (2022)
